These data points were gathered from PubChem BioAssay (NCI).

- ASSAY_EXPLANATION: NCI Yeast Anticancer Drug Screen. Data for the bub3 strain (AID 167)
- TEST_CONDITIONS: S. cerevisiae bub3 mutant strain, at 50.0 µM, active compounds read high
The panel holds about 79,000 compounds, 15% with a hit somewhere; the sample as a whole holds those more often.
Consider the following molecules; for each one, report its growth inhibition.
The response must be a number in % with no trailing unit.

Request: What does the data say about its growth inhibition? Entry: O=C1O[C@@H](c2ccc3c(c2)OCO3)C2C(=O)O[C@@H](c3ccc4c(c3)OCO4)C12 (some centres undefined)
Response: 2.6

Request: What does the data say about its growth inhibition? Entry: `S=P(c1ccccc1)(c1ccccc1)C(P(c1ccccc1)c1ccccc1)P(c1ccccc1)c1ccccc1`
Response: 33.5

Request: What does the data say about its growth inhibition? Entry: `NC(=O)C1=Cc2cccn2-c2ccccc2S1`
Response: 2.1

Request: What does the data say about its growth inhibition? Entry: `CCOc1c[n+](C)c(/C=C/c2ccccc2)s1`
Response: -0.45

Request: What does the data say about its growth inhibition? Entry: `COc1ccc(CCNC(=O)c2ccc(CSc3ccc(Cl)cc3)o2)cc1OC`
Response: 42.8

Request: What does the data say about its growth inhibition? Entry: `NC1(C(=O)O)CCCCC1`
Response: -12.9

Request: What does the data say about its growth inhibition? Entry: `CC(C)C1CCC(=O)CC1`
Response: 0.75

Request: What does the data say about its growth inhibition? Entry: `CCOC(=O)c1cc2c(cn1)[nH]c1cccc(N)c12`
Response: -3.5

Request: What does the data say about its growth inhibition? Entry: `COC(=O)CC(=O)C=P(c1ccccc1)(c1ccccc1)c1ccccc1`
Response: -17.5

Request: What does the data say about its growth inhibition? Entry: COc1ccc2cc(C(C)C(O)c3cc(F)c(F)c(F)c3F)ccc2c1 (centres undefined)
Response: -1.25

Request: What does the data say about its growth inhibition? Entry: `C=CC1(c2ccc3ccccc3c2)OCC(CC)(CC)CO1`
Response: 7.75

Request: What does the data say about its growth inhibition? Entry: CS(=O)(=O)OCC1CCCCCCCCCCC12SCCCS2 (centres undefined)
Response: -23.6

Request: What does the data say about its growth inhibition? Entry: `COc1ccc(CCN2C(=O)C(=O)N(c3ccc([N+](=O)[O-])cc3)C2=O)cc1OC`
Response: 0.95

Request: What does the data say about its growth inhibition? Entry: `C=CCOC(=O)Nc1cc(Cl)ccc1C`
Response: -1.55

Request: What does the data say about its growth inhibition? Entry: `C(=N\NC1=NCCCN1)/c1ccc2ccccc2c1`
Response: 0.05

Request: What does the data say about its growth inhibition? Entry: `COc1ccccc1Nc1nc(NNC(=O)Cc2ccccc2)nc(NNC(=O)c2ccncc2)n1`
Response: 22.7

Request: What does the data say about its growth inhibition? Entry: `COC(=O)Cc1onc(-c2ccccc2)c1[N+](=O)[O-]`
Response: 28.9

Request: What does the data say about its growth inhibition? Entry: COP(=O)(OC)C(NC(=O)C(F)(F)F)(c1ccccc1)C(F)(F)F (centres undefined)
Response: -16.9

Request: What does the data say about its growth inhibition? Entry: `CCCCCCCCCCCC(=O)NC(=S)Nc1cc(OC)ccc1OC`
Response: -3.85

Request: What does the data say about its growth inhibition? Entry: Cc1ccc2c(c1)C(O)(CC(=O)c1ccccc1)C(=O)N2 (centres undefined)
Response: -6.6

Request: What does the data say about its growth inhibition? Entry: `C=COC(=O)N1CCCCC1`
Response: -30.1

Request: What does the data say about its growth inhibition? Entry: `O=S(=O)(c1ccccc1)c1ccc(O)cc1`
Response: -8.35

Request: What does the data say about its growth inhibition? Entry: `O=C(Nc1cc([N+](=O)[O-])ccc1Cl)c1ccc(F)cc1`
Response: 28.9

Request: What does the data say about its growth inhibition? Entry: `c1ccc(N2CCCC2(c2ccccc2)c2ccccc2)cc1`
Response: 22.9
